Target: recombinant α3L GlyRs expressed in HEK293 cells (Homo sapiens, UniProt O75311)
Construct: expressed in transfected cells; host or cells: HEK293
Sequence (O75311 34-464): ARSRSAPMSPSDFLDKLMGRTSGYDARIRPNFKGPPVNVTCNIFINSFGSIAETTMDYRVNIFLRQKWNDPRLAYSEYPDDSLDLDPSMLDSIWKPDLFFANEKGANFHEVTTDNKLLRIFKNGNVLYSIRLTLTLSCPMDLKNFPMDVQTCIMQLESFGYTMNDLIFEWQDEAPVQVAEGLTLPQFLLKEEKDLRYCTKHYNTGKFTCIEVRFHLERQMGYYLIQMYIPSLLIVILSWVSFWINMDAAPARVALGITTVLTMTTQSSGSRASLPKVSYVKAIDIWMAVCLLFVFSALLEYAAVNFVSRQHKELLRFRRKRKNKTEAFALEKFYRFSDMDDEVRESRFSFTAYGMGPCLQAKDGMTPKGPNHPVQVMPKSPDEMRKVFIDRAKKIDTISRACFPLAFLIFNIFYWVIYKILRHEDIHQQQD
Test: Whole-cell patch-clamp recordings of GlyR-transfected HEK293 cells
Type: cell-based
Conditions: control, no glucose preincubation (5.5 mM glucose in medium); n = 7 cells; mean ± SEM; read-out: EC50 of glycine-induced currents
pEC50: −log10 of the molar value.
measuredAttribute: pEC50

{"compound": "NCC(=O)O [Glycine, glycine]", "recordedResult": 3.97}

###

Molecular target: recombinant α3L GlyRs expressed in HEK293 cells (Homo sapiens)
Construct: expressed in transfected cells; host or cells: HEK293
Assay: Whole-cell patch-clamp recordings of GlyR-transfected HEK293 cells
Type: cell-based
Conditions: IC50 of strychnine inhibition, 60 μM glycine; absence of glucose; n = 7 cells
pIC50: −log10 of the molar value.

{"molecule": "O=C1C[C@@H]2OCC=C3CN4CC[C@]56c7ccccc7N1[C@H]5[C@H]2[C@H]3C[C@H]46 [Strychnine, strychnine]", "pIC50": 7.51}
